Provenance of the data: patent US7816521B2

- System: HT29 multicellular layers
- Format: in vitro ADME
- condition context: human
measured attribute: DMCL

Asked: Identify measured DMCL corresponding to COCCc1n[n+]([O-])c2ccccc2[n+]1[O-]
Given back: 2.09 × 10^−6 cm^2s^−1

Asked: State, in one line, measured DMCL of CN(CCCNC(=O)c1cccc2ccc(-c3ccncc3)nc12)CCCNc1n[n+]([O-])c2ccccc2[n+]1[O-]
Given back: 9.80 × 10^−8 cm^2s^−1

Asked: Note DMCL for the compound shown: CCc1n[n+]([O-])c2ccccc2[n+]1[O-]
Given back: 2.61 × 10^−6 cm^2s^−1

Asked: Give me measured DMCL, please, for this compound: Nc1n[n+]([O-])c2cc(Cl)ccc2[n+]1[O-]
Given back: 8.70 × 10^−7 cm^2s^−1

Asked: For the compound CS(=O)(=O)c1ccc2c(c1)[n+]([O-])nc(N)[n+]2[O-] , report DMCL.
Given back: 2.13 × 10^−7 cm^2s^−1

Asked: Report DMCL, nothing else, for this compound: Cc1ccc2c(c1)[n+]([O-])c(N)n[n+]2[O-]
Given back: 5.43 × 10^−7 cm^2s^−1

Asked: Give the measured DMCL for [O-][n+]1nc(NCCCCCCNc2c3ccccc3nc3ccccc23)[n+]([O-])c2ccccc21
Given back: 6.17 × 10^−7 cm^2s^−1

Asked: Note down DMCL recorded for CN(CCCNC(=O)c1cccc2cc3ccccc3nc12)CCCNc1n[n+]([O-])c2ccccc2[n+]1[O-]
Given back: 3.82 × 10^−7 cm^2s^−1

Asked: Look up DMCL of Cc1ccc2c(c1)[n+]([O-])nc(NCCN(C)C)[n+]2[O-] and report it.
Given back: 5.09 × 10^−7 cm^2s^−1

Asked: Check the records and state DMCL for Nc1n[n+]([O-])c2ccccc2[n+]1[O-] [A, tirapazamine, reference compound]
Given back: 3.97 × 10^−7 cm^2s^−1

Asked: Tell me its DMCL given CCCN(CCC)CCNc1n[n+]([O-])c2ccccc2[n+]1[O-] as the entry.
Given back: 1.71 × 10^−6 cm^2s^−1

Asked: Output DMCL of Cc1ccc2c(c1)[n+]([O-])c(NCCN(C)C)n[n+]2[O-]
Given back: 3.99 × 10^−7 cm^2s^−1

Asked: Input Nc1n[n+]([O-])c2c(Cl)cccc2[n+]1[O-] , output reported DMCL.
Given back: 6.69 × 10^−7 cm^2s^−1

Asked: Using the record for Cc1ccc2c(c1)[n+]([O-])c(NCCCN(C)CCCNC(=O)c1cccc3cc4ccccc4nc13)n[n+]2[O-] , state its measured DMCL.
Given back: 1.05 × 10^−7 cm^2s^−1
